assayedTarget: PhzR (Pseudomonas aeruginosa)
Sequence (whole entry): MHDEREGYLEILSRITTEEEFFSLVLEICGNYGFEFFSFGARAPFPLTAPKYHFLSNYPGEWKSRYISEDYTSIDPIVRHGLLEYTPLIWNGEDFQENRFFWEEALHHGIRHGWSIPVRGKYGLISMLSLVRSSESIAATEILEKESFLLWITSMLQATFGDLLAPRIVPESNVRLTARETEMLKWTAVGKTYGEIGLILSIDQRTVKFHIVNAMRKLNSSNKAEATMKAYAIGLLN
testMethodNotes: Antagonist activity at Pseudomonas aeruginosa QscR expressed in Escherichia coli assessed as inhibition of dodecanoyl homoserine lactone induced production of beta-galactosidase at 5 uM
Format: functional
measurementName: inhibition (%)
Numeric only. Scale: %

Illustrative cases are given below, each with its answer.
inhibition for "O=C(Cc1cccc(I)c1)N[C@H]1CCOC1=O" is 70

inhibition for "CCOc1ccc(CC(=O)N[C@H]2CCOC2=O)cc1" is 75

inhibition for "CCCCCCCCc1ccc(C(=O)N[C@H]2CCOC2=O)cc1" is 76

inhibition for "O=C(Cc1ccc(-c2ccccc2)cc1)N[C@H]1CCOC1=O" is 88

inhibition for "O=C(Cc1cccc(Br)c1)N[C@H]1CCOC1=O" is 71

inhibition for "O=C(Cc1cccc([N+](=O)[O-])c1)N[C@H]1CCOC1=O" is 71

New cases:
inhibition for "O=C(Cc1cccc(Cl)c1)N[C@H]1CCOC1=O" is 73

inhibition for "CC(C)(C)OC(=O)NCc1ccc(C(=O)N[C@H]2CCOC2=O)cc1" is 77
